Biological target: Poly [ADP-ribose] polymerase 1 (Homo sapiens, UniProt P09874)
Sequence (P09874 whole entry): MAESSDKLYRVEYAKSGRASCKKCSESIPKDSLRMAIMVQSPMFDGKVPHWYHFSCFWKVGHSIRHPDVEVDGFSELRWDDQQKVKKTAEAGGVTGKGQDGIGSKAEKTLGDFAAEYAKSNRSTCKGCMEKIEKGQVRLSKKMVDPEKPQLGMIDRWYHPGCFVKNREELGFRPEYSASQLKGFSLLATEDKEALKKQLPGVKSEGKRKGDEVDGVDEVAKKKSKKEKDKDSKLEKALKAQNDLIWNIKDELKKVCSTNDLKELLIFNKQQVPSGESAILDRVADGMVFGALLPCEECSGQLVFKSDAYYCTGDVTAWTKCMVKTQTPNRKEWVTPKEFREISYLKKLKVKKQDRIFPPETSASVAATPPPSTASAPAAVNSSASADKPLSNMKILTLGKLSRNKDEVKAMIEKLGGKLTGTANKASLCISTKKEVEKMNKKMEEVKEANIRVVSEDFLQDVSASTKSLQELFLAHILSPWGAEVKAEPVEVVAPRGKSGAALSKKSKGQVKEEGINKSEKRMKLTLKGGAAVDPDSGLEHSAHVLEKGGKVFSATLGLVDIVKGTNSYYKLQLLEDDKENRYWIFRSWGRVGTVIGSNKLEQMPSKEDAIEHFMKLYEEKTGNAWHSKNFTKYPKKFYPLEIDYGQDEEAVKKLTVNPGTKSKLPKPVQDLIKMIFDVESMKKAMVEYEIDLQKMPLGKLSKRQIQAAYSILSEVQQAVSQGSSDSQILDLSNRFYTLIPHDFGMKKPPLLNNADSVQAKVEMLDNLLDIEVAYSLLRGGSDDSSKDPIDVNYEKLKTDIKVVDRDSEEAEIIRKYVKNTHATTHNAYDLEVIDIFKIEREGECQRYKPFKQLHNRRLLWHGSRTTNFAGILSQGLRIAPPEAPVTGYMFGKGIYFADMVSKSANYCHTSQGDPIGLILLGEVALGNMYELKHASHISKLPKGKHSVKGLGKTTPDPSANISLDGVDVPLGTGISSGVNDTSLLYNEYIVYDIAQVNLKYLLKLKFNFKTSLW
Assay: Inhibition of human recombinant Poly (ADP-ribose) polymerase 1
The label yes (1) is reserved for IC50 strictly under 200 nM; no (0) covers values equal to or above it.

# check: IC50 < 200 nM for "O=C(CCN1CCCCC1)N1CCc2[nH]c(=O)c3cc(F)ccc3c2C1"
yes (1)

is_below(IC50, 200 nM) for "O=C(CN1CCC(N2CCCC2)CC1)N1CCc2nc(O)c3ccccc3c2C1" ?
yes (1)

In the record for "O=S(=O)(CCN1CCC(N2CCCC2)CC1)N1CCc2c(nc(O)c3ccccc23)C1" , is IC50 less than 200 nM?
no (0)

IC50 under 200 nM? Item: "Oc1nc2c(c3ccccc13)CCCC2"
yes (1)

Lab log: compare recorded IC50 with 200 nM; is it strictly lower for "O=C(CCN1CCC(N2CCCC2)CC1)N1CCc2c(nc(O)c3ccccc23)C1" ?
no (0)

Dear colleague, could you confirm whether IC50 of "O=c1[nH]c2c(c3ccccc13)CCN(S(=O)(=O)CCN1CCCCC1)C2" falls below 200 nM? Thanks.
no (0)

IC50 under 200 nM? Item: "O=C(CCN1CCC(N2CCCC2)CC1)N1CCc2nc(O)c3cc(F)ccc3c2C1"
yes (1)

For this compound, is IC50 lower than 200 nM? "O=C([C@@H]1CCCN1)N1CCc2c(nc(O)c3ccccc23)C1"
yes (1)

Find out if reported IC50 for "O=c1[nH]c2c(c3ccccc13)CN(S(=O)(=O)CCN1CCC(N3CCCC3)CC1)CC2" is less than 200 nM
no (0)

Is IC50 of "O=C(CN1CCN(C2CCCC2)CC1)N1CCc2c(nc(O)c3ccccc23)C1" strictly below 200 nM?
yes (1)

Dear colleague, could you confirm whether IC50 of "Oc1nc2c(c3ccc(F)cc13)CNCC2" falls below 200 nM? Thanks.
yes (1)

Below 200 nM on IC50? Entry "O=C(CCN1CCCCC1)N1CCc2c(nc(O)c3ccccc23)C1"
no (0)

For "Oc1nc2c(c3ccccc13)CCNC2" , is the recorded IC50 below the cut-off of 200 nM?
yes (1)

hey, is IC50 for "N[C@@H](CCC(=O)N1CCc2nc(O)c3ccccc3c2C1)C(=O)O" lower than 200 nM or not?
yes (1)

Data provenance is ChEMBL document CHEMBL1136129.
